measured target: T1, human PD-1/His (Sino Biological Inc.) (human, UniProt Q15116 25-170)
T1 construct: extracellular domain; Bought protein; also called extracellular domain fragment of PD-1 protein containing His tag; not shown: His tag
T1 sequence (Q15116 25-170): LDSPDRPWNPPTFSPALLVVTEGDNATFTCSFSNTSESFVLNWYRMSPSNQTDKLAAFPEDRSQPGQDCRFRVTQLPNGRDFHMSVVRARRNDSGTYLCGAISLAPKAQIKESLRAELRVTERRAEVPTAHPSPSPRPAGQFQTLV
assay notes: affinity and kinetic constants; method not restated, taken as BLI of Example 3.4
Overview of recorded koff for various binders
quantity measured: koff

[[record]]
binder = "humanized antibody AB12M3 (antibody, V domains shown, the description speaks of human IgG4 or IgG1 and human kappa only as embodiments) VH: EVQLVESGGGLVQPGGSLRLSCAASGFTFSSYGMSWVRQAPGKGLEWVATISGGGRDTYYPDSVKGRFTISRDNAKNNLYLQMNSLRAEDTALYYCARQKDTSWFVHWGQGTLVTVSS VL: EIVLTQSPATLSLSPGERATLSCRASESVDDYGISFMNWFQQKPGQAPKLLIYVASNQGSGVPARFSGSGSGTDFSLTISSLEPDDTAMYFCQQSKEVPWTFGGGTKVEIK"
quantity_measured = "koff"
assay_result = "< 1e-07 s⁻¹"

[[record]]
binder = "humanized antibody AB12N4 (antibody, V domains shown) VH: QVQLVESGGGVVQPGRSLRLSCAASGITFSNSGMHWVRQAPGKGLEWVAVIWYDGSKRYYADSVKGRFTISRDNSKNTLYLQMNSLRAEDTAVYYCATNDDYWGQGTLVTV VL: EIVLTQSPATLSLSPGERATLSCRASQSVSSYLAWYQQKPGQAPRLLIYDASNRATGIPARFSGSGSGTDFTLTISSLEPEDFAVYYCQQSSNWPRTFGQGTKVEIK"
quantity_measured = "koff"
assay_result = "2.41e-05 s⁻¹"

[[record]]
binder = "humanized antibody AB12N5 (antibody, V domains shown) VH: QVQLVESGGGVVQPGRSLRLSCAASGITFSNSGMHWVRQAPGKGLEWVAVWYDGSKRYYADSVKGRFTISRDNSKNTLFLQMNSLRAEDTAVYYCATNDDYWGQGTLVTV VL: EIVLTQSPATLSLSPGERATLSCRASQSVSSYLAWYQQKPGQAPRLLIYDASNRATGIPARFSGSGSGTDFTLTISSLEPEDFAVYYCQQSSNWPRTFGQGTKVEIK"
quantity_measured = "koff"
assay_result = "2.56e-05 s⁻¹"

[[record]]
binder = "humanized antibody AB12N3 (antibody, V domains shown) VH: QVQLVESGGGVVQPGRSLRLSCAASGITFSNSGMHWVRQAPGKGLEWVAVWYDGSKRYYADSVKGRFTISRDNSKNTLYLQMNSLRAEDTAVYYCATNDDYWGQGTLVTV VL: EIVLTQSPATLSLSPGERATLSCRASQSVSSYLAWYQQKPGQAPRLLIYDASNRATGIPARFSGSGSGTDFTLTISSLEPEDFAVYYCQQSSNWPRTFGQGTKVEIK"
quantity_measured = "koff"
assay_result = "2.28e-05 s⁻¹"


The measured values listed here are drawn from patent US20190367617A1.
